Each entry below lists one item and its recorded pEC50 value.
- test_system: 5-HT4 receptor (Rattus norvegicus, UniProt Q62758)
- Construct: One 2 cm segment of intrathoracic esophagus proximal to the diaphragm was removed from male rats
- Sequence (Q62758 whole entry): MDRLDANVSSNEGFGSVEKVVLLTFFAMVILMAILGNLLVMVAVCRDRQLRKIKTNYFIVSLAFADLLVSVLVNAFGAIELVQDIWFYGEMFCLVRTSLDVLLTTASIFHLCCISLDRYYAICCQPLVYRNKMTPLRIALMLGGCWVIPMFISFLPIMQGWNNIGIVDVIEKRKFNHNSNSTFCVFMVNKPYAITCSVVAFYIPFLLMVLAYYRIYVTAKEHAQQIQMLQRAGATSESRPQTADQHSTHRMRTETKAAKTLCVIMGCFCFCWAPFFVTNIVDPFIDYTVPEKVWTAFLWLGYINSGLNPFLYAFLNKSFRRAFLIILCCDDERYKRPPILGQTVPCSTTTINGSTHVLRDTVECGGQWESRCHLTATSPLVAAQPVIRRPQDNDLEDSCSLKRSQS
- test_details: biochemical
- assay_conditions: carbachol (3 μM)-contracted rat esophagus TMM; 37° C.; tissues from 5 rats; read-out: 5-HT4 Agonism (Rat TMM) In Vitro Assay: EC50 Values
Convention used: pEC50 is expressed as -log10 of the molar concentration.

Some molecules with known pEC50 results, for comparison:
CC(C)n1c(=O)n(C(=O)NCC2C3CC4CC2CN4C3)c2ccccc21 (centres unmarked): 5.88
CC(C)n1c(=O)n(C(=O)NCCC23CCCN2CCC3)c2ccccc21: 6.75
CCn1c(=O)n(C(=O)NC2C3CC4CC2CN(C4)C3)c2ccccc21 (centres unmarked) [Example 15]: 5.34
CCn1c(=O)n(C(=O)NC2C3CC4CC2CN(C4)C3)c2cc(Cl)ccc21 (centres unmarked): 5.67

Next molecule, please.
pEC50 reported for this molecule CC(C)n1c(=O)n(C(=O)NCCC23CCCN2CCC3)c2ccc(Cl)cc21 : 5.02

----------
- test_system: 5-HT4 receptor (Rattus norvegicus, UniProt Q62758)
- Construct: One 2 cm segment of intrathoracic esophagus proximal to the diaphragm was removed from male rats
- test_details: biochemical
- assay_conditions: carbachol (3 μM)-contracted rat esophagus TMM; 37° C.; tissues from 5 rats; read-out: 5-HT4 Agonism (Rat TMM) In Vitro Assay: EC50 Values
Parameter log10 EC50: see the listing below.
Values below are the log10 of the recorded EC50, with µM as the unit.

Reference set (6 entries):
CC(C)n1c(=O)n(C(=O)NCC2C3CC4CC2CN(C4)C3)c2ccccc21 (centres unmarked) [Example 19B]: -0.03
CC(C)n1c(=O)n(C(=O)NCC2C3CC4CC2CN(C4)C3)c2cc(Cl)ccc21 (centres unmarked) [Example 22C]: -0.14
CC(C)n1c(=O)n(C(=O)NCC23CCCN2CCC3)c2ccccc21: 0.58
CC(C)n1c(=O)n(C(=O)NC[C@H]2CN3CC[C@H]2C3)c2ccccc21 (relative stereo): -0.52
CC(C)n1c(=O)n(C(=O)NCCC23CCCN2CCC3)c2cc(Cl)ccc21 [Example 12A]: 0.13
CC(C)n1c(=O)n(C(=O)N[C@@H]2[C@@H]3C[C@H]4CN(C3)C[C@H]42)c2ccccc21 (relative stereo): 0.18

Entry under test: CC(C)n1c(=O)n(C(=O)N[C@H]2C[C@@H]3CN(C)C[C@@H]3C2)c2ccccc21 [Example 14A] . Its log10 EC50 was -0.06

So, CC(C)n1c(=O)n(C(=O)NC2C3CC4CC2CN(C4)C3)c2cc(Cl)ccc21 (centres unmarked) ? Its log10 EC50 was 1.00

----------
- System: 5-HT3
- test_details: Bezold-Jarisch Reflex (inhibition of 5-HT-induced bradycardia in anesthetized mice)
- Type: in vivo
- assay_conditions: i.p., 30 min before 5-HT 0.25 mg/kg i.v.; >50 percent reduction in bradycardic response vs vehicle considered significant; pentobarbital anesthetized mice
measurement_kind: Minimum Effective Dose (MED) (mg/kg)
# value in mg/kg; strip the unit string

Look over these answered cases.
CC(C)n1c(=O)n(C(=O)NC[C@H]2CCN3CCC[C@H]23)c2ccccc21 (relative stereo) [Example 23]: 1
CCN(CC)CCNC(=O)c1cc(Cl)c(N)cc1OC [metoclopramide]: 5

Let us move to another entry and its Minimum Effective Dose (MED).
The compound identified as CC(C)n1c(=O)n(C(=O)NCCC23CCCN2CCC3)c2ccccc21 [Example 13] registered its Minimum Effective Dose (MED) at 10

// provenance: patent US5521193A
